Sourced from ChEMBL document CHEMBL1124223

Tested on: Mus musculus
Assay: In vivo activity against Escherichia coli (po)
Type: functional
Conditions: read-out: PD50
For each of the molecules below, state its ED50.

Take a look at these entries with their results.
Entry under test: O=C(O)c1cn(C2CC2)c2cc(N3CCNCC3)c(F)cc2c1=O . Its ED50 was 1 mg/kg

Entry CCn1cc(C(=O)O)c(=O)c2cc(F)c(N3CCNCC3)cc21 — recorded ED50 = 4 mg/kg

Value sought for every listed molecule: ED50.
1. CN1CCN(c2cc3c(cc2F)c(=O)c(C(=O)O)cn3-c2ccc(F)cc2)CC1
2. CCNCC1CCN(c2c(F)cc3c(=O)c(C(=O)O)cn(C4CC4)c3c2F)C1 (stereo not given)
3. CCNCC1CCN(c2c(F)cc3c(=O)c(C(=O)O)cn(CC)c3c2F)C1 (stereo not given)

A.
1: 2 mg/kg; 2: 4 mg/kg; 3: 12 mg/kg
